Values from patent US20190315771A1

# system: human TPOR (Homo sapiens)
# Sequence (P40238 26-635): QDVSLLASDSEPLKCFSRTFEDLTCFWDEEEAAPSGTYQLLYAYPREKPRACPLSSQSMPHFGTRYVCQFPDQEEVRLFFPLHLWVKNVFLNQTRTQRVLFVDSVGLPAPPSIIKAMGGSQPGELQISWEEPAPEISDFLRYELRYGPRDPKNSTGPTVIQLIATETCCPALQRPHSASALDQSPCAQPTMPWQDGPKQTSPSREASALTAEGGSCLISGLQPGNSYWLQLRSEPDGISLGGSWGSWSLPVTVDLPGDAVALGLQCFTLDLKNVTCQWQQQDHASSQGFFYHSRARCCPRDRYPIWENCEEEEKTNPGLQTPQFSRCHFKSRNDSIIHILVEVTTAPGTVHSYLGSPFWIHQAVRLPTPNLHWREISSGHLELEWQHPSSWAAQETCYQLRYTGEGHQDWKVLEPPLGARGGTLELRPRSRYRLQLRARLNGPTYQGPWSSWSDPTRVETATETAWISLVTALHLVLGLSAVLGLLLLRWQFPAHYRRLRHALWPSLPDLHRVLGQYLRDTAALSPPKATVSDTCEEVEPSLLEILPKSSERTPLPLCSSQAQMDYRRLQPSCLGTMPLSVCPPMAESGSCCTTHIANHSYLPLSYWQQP
# measurement_protocol: Proliferation of BAF3/TPOR cells (MTS method, OD490)
# conditions_used: BAF3 cells stably expressing human TPOR, cultured with compound 24 h
For each record, write down the corresponding EC50.
Respond numerically; units are nM and should not be typed.

Qu. What value of measured EC50 is listed for C/C(=C\c1c(Cl)cc(C(=O)Nc2nc(-c3cc(Cl)cs3)c(N3CC4CCN(C5CCCCC5)C4C3)s2)cc1Cl)C(=O)O (stereo not shown) ?
Ans. 0.1

Qu. What value of measured EC50 is listed for C/C(=C\c1c(Cl)cc(C(=O)Nc2nc(-c3cc(Cl)cs3)c(N3CC4CCN(C5[C@H]6C[C@@H]7C[C@@H](C[C@H]5C7)C6)C4C3)s2)cc1Cl)C(=O)O (stereo partly shown) ?
Ans. 0.08

Qu. What value of measured EC50 is listed for C/C(=C\c1c(Cl)cc(C(=O)Nc2nc(-c3cc(Cl)cs3)c(N3CC4CCN(C5CC(F)(F)C5)C4C3)s2)cc1Cl)C(=O)O (stereo not shown) ?
Ans. 0.43

Qu. What value of measured EC50 is listed for CCCCCCO[C@@H](C)c1cccc(-c2csc(NC(=O)c3cc(Cl)c(/C=C(\C)C(=O)O)c(Cl)c3)n2)c1OC [Lusutrombopag, reference compound] ?
Ans. 1.93

Qu. What value of measured EC50 is listed for C/C(=C\c1c(Cl)cc(C(=O)Nc2nc(-c3cc(Cl)cs3)c(N3CC4CCN(C5CCCCCC5)C4C3)s2)cc1Cl)C(=O)O (stereo not shown) ?
Ans. 0.13

Qu. What value of measured EC50 is listed for C/C(=C\c1c(Cl)cc(C(=O)Nc2nc(-c3cc(Cl)cs3)c(N3C[C@H]4CCN(C5[C@H]6C[C@@H]7C[C@@H](C[C@H]5C7)C6)[C@H]4C3)s2)cc1Cl)C(=O)O (stereo partly shown) ?
Ans. 0.05

Qu. What value of measured EC50 is listed for O=C(Nc1nc(-c2cc(Cl)cs2)c(N2CC3CCN(C4CCCCC4)C3C2)s1)c1cnc(N2CCC(C(=O)O)CC2)c(Cl)c1 (stereo not shown) ?
Ans. 0.08
